# TGT: AXOR109 (Homo sapiens)
# Construct: expressed in transfected cells; host or cells: melanophore cells, transfected by electroporation
# ASSAY_SUMMARY: Human AXOR109/Melanophore Assay
# Format: cell-based
# RUN_CONDITIONS: 1 h, melanophore assay, normalized to alpha-MSH system max
EXPERIMENTAL_ENDPOINT: Emax

Solved cases (5 shown):
- COMPOUND: "COc1ccc(S(=O)(=O)N(C)CCN(C)S(=O)(=O)c2ccc(OC)c(OC)c2)cc1"
  Emax: "76 to 100%"
- COMPOUND: "COc1ccc(S(=O)(=O)N(C)CCN(C)S(=O)(=O)c2ccc(OC)c(OC)c2)cc1F"
  Emax: "0 to 50%"
- COMPOUND: "COc1ccc(S(=O)(=O)N2CC(C)(C)N(S(=O)(=O)c3ccc(OC)c(OC)c3)CC2=O)cc1OC"
  Emax: "76 to 100%"
- COMPOUND: "COc1ccc(S(=O)(=O)N2CCN(S(=O)(=O)c3ccc(OC)c(OC)c3)C(C3CCCCC3)C2)cc1OC (stereo not drawn)"
  Emax: "51 to 75%"
- COMPOUND: "COc1ccc(S(=O)(=O)N2CC(C)N(S(=O)(=O)c3ccc(OC)c(OC)c3)C(C)C2C)cc1OC (stereo not drawn)"
  Emax: "0 to 50%"

Given COc1ccc(S(=O)(=O)N2CCCCC(N(C)S(=O)(=O)c3ccc(OC)c(OC)c3)C2)cc1OC (stereo not drawn) , state its recorded Emax. 51 to 75%

Would you kindly repeat that for CCCN(C[C@@H]1CCCN1S(=O)(=O)c1ccc(OC)c(OC)c1)S(=O)(=O)c1ccc(OC)c(OC)c1 ? 76 to 100%

Would you kindly repeat that for COc1ccc(S(=O)(=O)N2CCCN(S(=O)(=O)c3ccc(OC)c(OC(F)(F)F)c3)CC2)cc1OC ? 76 to 100%

Would you kindly repeat that for COc1ccc(S(=O)(=O)N2C[C@H](C)N(S(=O)(=O)c3cccc4cccnc34)C[C@@H]2C)cc1OC ? 76 to 100%

Would you kindly repeat that for CCN(C[C@H]1CCCN1S(=O)(=O)c1ccc(OC)c(OC)c1)S(=O)(=O)c1ccc(OC)c(OC)c1 ? 76 to 100%

Would you kindly repeat that for COc1ccc(S(=O)(=O)NC2CCCCN(S(=O)(=O)c3ccc(OC)c(OC)c3)C2)cc1OC (stereo not drawn) ? 0 to 50%

Would you kindly repeat that for COc1ccc(S(=O)(=O)N2[C@H](C)CN(S(=O)(=O)c3ccc(-c4cnco4)cc3)C[C@@H]2C)cc1OC ? 51 to 75%

====

# TGT: AXOR109 (Homo sapiens, UniProt Q8TDU6)
# Construct: expressed in transfected cells; host or cells: melanophore cells, transfected by electroporation
# Sequence (Q8TDU6 whole entry): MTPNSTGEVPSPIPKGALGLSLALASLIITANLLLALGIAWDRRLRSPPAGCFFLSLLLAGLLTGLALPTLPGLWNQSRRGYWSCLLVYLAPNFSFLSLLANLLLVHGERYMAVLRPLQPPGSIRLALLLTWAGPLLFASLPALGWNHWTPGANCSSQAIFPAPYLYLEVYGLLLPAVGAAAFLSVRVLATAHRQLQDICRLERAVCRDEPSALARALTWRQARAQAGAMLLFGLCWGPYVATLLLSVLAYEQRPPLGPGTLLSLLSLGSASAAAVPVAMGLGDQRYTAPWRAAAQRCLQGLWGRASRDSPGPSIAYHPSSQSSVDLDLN
# ASSAY_SUMMARY: Human AXOR109/Melanophore Assay
# Assay type: cell-based
# RUN_CONDITIONS: 1 h, melanophore assay, normalized to alpha-MSH system max
The reader will find reported Emax values listed item by item below.

- COMPOUND: "CCN([C@H]1CCN(S(=O)(=O)c2ccc(OC)c(OC)c2)C1)S(=O)(=O)c1ccc(OC)c(OC)c1 [Example 62]"
  Emax: "76 to 100%"
- COMPOUND: "COc1ccc(S(=O)(=O)N(C)CCN(C)S(=O)(=O)c2ccc3c(c2)n(C)c(=O)n3C)cc1OC [Example 65]"
  Emax: "51 to 75%"
- COMPOUND: "COc1ccc(S(=O)(=O)N2CCN(S(=O)(=O)c3ccc(OC)c(OC)c3)C(=O)C2=O)cc1OC [Example 27]"
  Emax: "51 to 75%"
- COMPOUND: "COc1ccc(S(=O)(=O)N2CCN(S(=O)(=O)c3ccc(OC)c(OC)c3)C2=O)cc1OC [Example 23]"
  Emax: "0 to 50%"
- COMPOUND: "CCN(C1CCCN(S(=O)(=O)c2ccc(OC)c(OC)c2)C1)S(=O)(=O)c1ccc(OC)c(OC)c1 (centres unmarked) [Example 93]"
  Emax: "51 to 75%"

Given COc1ccc(S(=O)(=O)N(C)CCN(C)S(=O)(=O)c2ccc3c(c2)OCCCO3)cc1OC [Example 73] , state its recorded Emax. 76 to 100%

Would you kindly repeat that for COc1ccc(S(=O)(=O)N2CCN(S(=O)(=O)c3c(C)cccc3Cl)CC2)cc1OC [Example 5] ? 76 to 100%

Would you kindly repeat that for CCN([C@@H]1CCN(S(=O)(=O)c2ccc(OC)c(OC)c2)C1)S(=O)(=O)c1ccc(OC)c(OC)c1 [Example 60] ? 76 to 100%

Would you kindly repeat that for COc1ccc(S(=O)(=O)N(C)CCN(C)S(=O)(=O)c2ccc(OC)c(OC(F)(F)F)c2)cc1OC [Example 31] ? 0 to 50%

Would you kindly repeat that for COc1ccc(S(=O)(=O)N2CCN(S(=O)(=O)c3ccc(OC)c(OC)c3)CC(F)(F)C2)cc1OC [Example 53] ? 51 to 75%

Would you kindly repeat that for COc1ccc(S(=O)(=O)N(C)CCN(C2CC2)S(=O)(=O)c2ccc(OC)c(OC)c2)cc1OC [Example 88] ? 76 to 100%

Would you kindly repeat that for COc1ccc(S(=O)(=O)N2C[C@@H](C)N(S(=O)(=O)c3ccc(OC)c(OC)c3)[C@H](C)C2)cc1OC [Example 17] ? 0 to 50%

Would you kindly repeat that for COc1ccc(S(=O)(=O)N2C[C@@H](C)N(S(=O)(=O)c3ccc(OC)c(OC)c3)[C@@H](C)C2)cc1F [Example 32] ? 51 to 75%
